# tested_system: Dihydrofolate reductase (Rattus norvegicus, UniProt Q920D2)
# Sequence (Q920D2 whole entry): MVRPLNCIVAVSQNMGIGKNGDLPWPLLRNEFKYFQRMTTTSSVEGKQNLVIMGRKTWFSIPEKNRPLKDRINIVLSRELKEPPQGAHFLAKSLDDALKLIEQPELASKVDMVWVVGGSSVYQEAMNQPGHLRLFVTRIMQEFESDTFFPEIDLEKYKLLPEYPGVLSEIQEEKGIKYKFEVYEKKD
Record: compiled IC50 on Dihydrofolate reductase (Rattus norvegicus, UniProt Q920D2) from multiple reports.
Labelling field: enter Fulfilled if recorded IC50 is less than 20 µM. Enter Not fulfilled if it equals or exceeds that cut-off.

### Prompt Does the reported IC50 of the following compound sit strictly below 20 µM? `COc1cc(NCc2c[nH]c3nc(N)nc(O)c23)cc(OC)c1OC`
### Response Not fulfilled

### Prompt Strictly below 20 µM in IC50? COc1cc(CC2CCc3nc(N)nc(N)c3C2)cc(OC)c1OC (stereo unspecified)
### Response Fulfilled

### Prompt Say whether its IC50 is strictly beneath 20 µM. Entry: `Nc1nc(O)c2c(CNc3cc(Cl)ccc3Cl)c[nH]c2n1`
### Response Not fulfilled

### Prompt Check if IC50 falls below 20 µM for `Cc1cc(Cc2cnc(N)nc2N)cc(C)c1O` .
### Response Not fulfilled

### Prompt Consider `COc1ccc2c(CNc3cnc4nc(N)nc(N)c4c3)cccc2c1` . Does its IC50 lie strictly below 20 µM?
### Response Fulfilled

###

IC50 for Dihydrofolate reductase (Rattus norvegicus, UniProt Q920D2) - collated from the literature.
We label by threshold. Values of IC50 strictly beneath 0.07 µM are 1. Values of 0.07 µM and up are 0.

Solved cases (3 shown):
{"mol": "CCCc1nc(N)nc(N)c1Cc1cc(OC)c(OC)c(OC)c1", "cat": 0}
{"mol": "CN(Cc1ccc2nc(N)nc(N)c2n1)c1ccc(Cl)cc1", "cat": 1}
{"mol": "CCc1nc(N)nc(N)c1-c1ccc(Cl)c(/N=N/N(CCOC(C)=O)Cc2ccc3ccccc3c2)c1", "cat": 0}

### Prompt Determine whether this molecule shows IC50 lower than 0.07 µM (ties excluded): `CN(Cc1ccc2nc(N)nc(N)c2n1)c1c(Cl)cc(Cl)cc1Cl`
### Response 1

### Prompt In plain terms, does `Nc1nc(N)c2cc(CNc3ccc(Cl)cc3)ccc2n1` come in under 0.07 µM for IC50?
### Response 0

### Prompt Hello, I'm reviewing records and need to know if IC50 of `Nc1nc(N)c2nc(CNc3cccc(Cl)c3)ccc2n1` is below 0.07 µM. Could you check?
### Response 0

### Prompt Report whether reported IC50 is lower than 0.07 µM (strictly) for `COc1cc(Cc2cnc(N)nc2N)cc(OC)c1Br`
### Response 1

###

Record: compiled IC50 on Dihydrofolate reductase (Rattus norvegicus) from multiple reports.
Rule: IC50 below 0.04 µM gives Fulfilled. Equal to or above 0.04 µM gives Not fulfilled.

Worked examples, 5 compounds total:
{"mol": "Nc1nc(N)c2cc(NCc3ccccc3)ccc2n1", "cat": "Not fulfilled"}
{"mol": "COc1cc(N(Cc2cnc3nc(N)nc(N)c3c2C)C(C)C)cc(OC)c1OC", "cat": "Fulfilled"}
{"mol": "CCc1nc(N)nc(N)c1-c1ccc(N2CCNCC2)c([N+](=O)[O-])c1", "cat": "Not fulfilled"}
{"mol": "COc1ccc(C(F)(F)F)cc1NCc1cnc2nc(N)nc(N)c2c1C", "cat": "Fulfilled"}
{"mol": "COc1cc(/C=C/c2cnc3nc(N)nc(N)c3c2)cc(OC)c1OC", "cat": "Not fulfilled"}

### Prompt Does the reported IC50 of the following compound sit strictly below 0.04 µM? `Cc1c(CNc2cccc(Cl)c2)cnc2nc(N)nc(N)c12`
### Response Fulfilled

###

Endpoint summary: pIC50, system: UniProt:Q920D2, multiple sources combined.
Lab note: report pIC50 as minus log10 of the concentration in molar units, number only.

Record excerpt, results attached:
{"compound": "CCN(Cc1cnc2nc(N)nc(N)c2c1C)c1cc(OC)c(OC)c(OC)c1", "pIC50": 7.98}
{"compound": "Nc1nc(N)c2c(n1)CCC(c1ccccc1)C2 (configuration not stated)", "pIC50": 5.72}
{"compound": "Nc1nc(N)c2nc(CNc3cccc4ccccc34)cnc2n1", "pIC50": 5.90}
{"compound": "COc1ccccc1NCc1ccc2nc(N)nc(N)c2n1", "pIC50": 6.38}
{"compound": "Nc1nc(N)c2cc(CO)ccc2n1", "pIC50": 4.39}
{"compound": "Nc1nc(N)c2nc(CNc3cccc4ccccc34)ccc2n1", "pIC50": 7.40}
{"compound": "CCc1nc(N)nc(N)c1-c1ccc(N2CCOCC2)c([N+](=O)[O-])c1", "pIC50": 5.10}
{"compound": "CCc1cc(Cc2cnc(N)nc2N)cc(C)c1O", "pIC50": 4.41}

### Prompt Fill in reported pIC50 for this entry: `COc1cc(Cc2cnc(N)nc2N)ccc1O`
### Response 4.46

### Prompt Entry `C#CCN(Cc1cnc2nc(N)nc(N)c2c1C)c1cc(OC)c(OC)c(OC)c1` needs its pIC50 filled in; supply it.
### Response 7.93

### Prompt Consider the compound `COc1ccc(NCc2cnc3nc(N)nc(N)c3c2C)cc1` . State its measured pIC50.
### Response 7.25

### Prompt Quote pIC50 reported for `CCc1nc(N)nc(N)c1-c1ccc(Cl)c(/N=N/N(CCOC(C)=O)Cc2ccc(OC)c(OC)c2)c1` please.
### Response 6.41

###

# tested_system: Dihydrofolate reductase (Rattus norvegicus, UniProt Q920D2)
# Sequence (Q920D2 whole entry): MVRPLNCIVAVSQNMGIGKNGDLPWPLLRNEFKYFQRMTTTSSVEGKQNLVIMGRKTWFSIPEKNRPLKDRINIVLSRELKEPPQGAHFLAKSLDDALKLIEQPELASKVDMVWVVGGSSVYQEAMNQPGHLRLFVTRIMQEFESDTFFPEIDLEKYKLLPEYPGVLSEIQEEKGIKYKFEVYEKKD
Here, compounds appear alongside IC50 reported for Dihydrofolate reductase (Rattus norvegicus, UniProt Q920D2) in the literature.
I only need the number, in nM, no unit after it.

Below are worked cases with known answers.
{"compound": "Nc1nc(N)c2c(n1)CCC(Cc1cccc(OC(F)(F)F)c1)C2 (stereo unspecified)", "display_unit": "nM", "IC50": 79}
{"compound": "COc1cc(N(C)Cc2c[nH]c3nc(N)[nH]c(=O)c23)cc(OC)c1OC", "display_unit": "nM", "IC50": 45000}
{"compound": "Nc1nc(N)c2cc(CNc3cccc4ccccc34)cnc2n1", "display_unit": "nM", "IC50": 600}
{"compound": "Nc1nc2[nH]cc(CNc3cccc(Cl)c3)c2c(=O)[nH]1", "display_unit": "nM", "IC50": 26000}
{"compound": "Nc1nc(N)c2nc(CNc3ccc4ccccc4c3)ccc2n1", "display_unit": "nM", "IC50": 210}

Now for a further compound.
### Prompt Dear colleague, please send me the reported IC50 for `COc1cc(NCc2cnc3nc(N)nc(N)c3c2C)cc(C(F)(F)F)c1` when you can.
### Response 17

###

// molecules with reported pIC50 on Dihydrofolate reductase (Rattus norvegicus), multi-publication
Quick note: pIC50 means taking -log10 of the concentration in moles per liter.

Here is how some molecules turned out for pIC50.
{"molecule": "CCc1cc(Cc2cnc(N)nc2N)cc(C(C)CC)c1N (configuration not stated)", "value": 4.57}
{"molecule": "CCc1nc(N)nc(N)c1-c1ccc(N(C)C)cc1", "value": 5.21}
{"molecule": "Nc1nc(N)c2cc(CNc3cc(Cl)c(Cl)c(Cl)c3)cnc2n1", "value": 5.34}
{"molecule": "CC(C)(C)c1cc(Cc2cnc(N)nc2N)cc(C(C)(C)C)c1O", "value": 4.46}
{"molecule": "COc1ccc(OC)c(NCc2ccc3nc(N)nc(N)c3c2)c1", "value": 6.34}

Now let's try a different one.
### Prompt Report its pIC50 with Dihydrofolate reductase (Rattus norvegicus) as the test system: `COc1ccc(N(C)Cc2ccc3nc(N)nc(N)c3n2)c(OC)c1`
### Response 7.80

###

This section presents IC50 values reported for Dihydrofolate reductase (Rattus norvegicus, UniProt Q920D2) in the literature.
# tested_system: Dihydrofolate reductase (Rattus norvegicus, UniProt Q920D2)
# Sequence (Q920D2 whole entry): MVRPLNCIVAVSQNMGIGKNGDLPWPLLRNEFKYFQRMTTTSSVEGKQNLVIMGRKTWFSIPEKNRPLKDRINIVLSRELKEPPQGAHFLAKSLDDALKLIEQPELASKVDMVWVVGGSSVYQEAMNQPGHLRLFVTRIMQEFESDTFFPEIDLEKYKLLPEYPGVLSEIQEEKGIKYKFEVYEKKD
State the answer as a number, implicitly in µM.

{"compound": "CCc1nc(N)nc(N)c1-c1ccc(N(C)C2CCCCC2)c(N)c1", "display_unit": "µM", "IC50": 8.5}
{"compound": "COc1c(C(C)C)cc(Cc2cnc(N)nc2N)cc1C(C)C", "display_unit": "µM", "IC50": 13}
{"compound": "COc1c(I)cc(Cc2cnc(N)nc2N)cc1I", "display_unit": "µM", "IC50": 16}

### Prompt Using Dihydrofolate reductase (Rattus norvegicus, UniProt Q920D2) as the test system, report measured IC50 of `Nc1ncc(Cc2cc(I)c(OCCCOc3ccccc3)c(I)c2)c(N)n1` .
### Response 1.58

### Prompt Provide the reported IC50 (system: Dihydrofolate reductase (Rattus norvegicus, UniProt Q920D2)) for `COc1cc(NCc2cnc3nc(N)nc(N)c3c2C)cc(OC)c1OC`
### Response 0.0054

### Prompt Look up and report measured IC50 (Dihydrofolate reductase (Rattus norvegicus, UniProt Q920D2)) for the following compound: Nc1nc(N)c2c(n1)CCC(CC1CCCO1)C2 (stereo unspecified)
### Response 0.27

### Prompt Answer with IC50 of `Cc1c(CNc2ccc(Br)cc2)cnc2nc(N)nc(N)c12` measured for Dihydrofolate reductase (Rattus norvegicus, UniProt Q920D2).
### Response 0.0349
